Test system: PBMC
Experiment: Inhibition of mitogen-induced (PHA-P) PBMC proliferation
Type: cell-based, human
Settings: PBMC from 3 healthy donors; compound 48 h, then PHA-P 10 µg/ml 24 h; [3H]-thymidine; listed as mepivacaine; read-out: IC50, inhibition of mitogen-driven PBMC proliferation
pIC50: −log10 of the molar value.
quantity: pIC50

What value of pIC50 has been recorded for this entry: Cc1cccc(C)c1NC(=O)C1CCCCN1C (stereo not shown) [Mepivacaine]
≤ 4.30

---

Tested on: PBMC
Test: Inhibition of mitogen-induced (PHA-P) PBMC proliferation
Format: cell-based, human
Settings: read-out: IC50, inhibition of mitogen-driven PBMC proliferation; PBMC from 3 healthy donors; compound 48 h, then PHA-P 10 µg/ml 24 h; [3H]-thymidine
quantity: IC50

What value of IC50 has been recorded for this entry: CC(COc1ccccc1)N(CCCl)Cc1ccccc1 (stereo not shown)
≤ 20 µM
